- METHOD NOTES: in vivo
- STUDY CONDITIONS: SD, rat, plasma, po, 50 mg/kg
PROPERTY LABEL: half-life
Answer by giving the amount and then stating its unit.

Request: Given the entry CCC(C)(C)C(=O)O[C@H]1C[C@@H](C)C=C2C=C[C@H](C)[C@H](CC[C@@H]3C[C@@H](O)CC(=O)O3)[C@H]21 , report its measured half-life.
Result: 1.22 h

---

- METHOD NOTES: in vivo
- STUDY CONDITIONS: SD, rat, plasma, po, 50 mg/kg
PROPERTY LABEL: Tmax
Answer by giving the amount and then stating its unit.

Request: Given the entry CCC(C)(C)C(=O)O[C@H]1C[C@@H](C)C=C2C=C[C@H](C)[C@H](CC[C@@H]3C[C@@H](O)CC(=O)O3)[C@H]21 , report its measured Tmax.
Result: 1.5 h

---

- METHOD NOTES: in vivo
- STUDY CONDITIONS: SD, rat, plasma, ip, 10 mg/kg
PROPERTY LABEL: half-life (min)
Write the value in min as a bare number.

Request: Given the entry CCC(C)(C)C(=O)O[C@H]1C[C@@H](C)C=C2C=C[C@H](C)[C@H](CC[C@@H]3C[C@@H](O)CC(=O)O3)[C@H]21 , report its measured half-life.
Result: 32.4

---

- METHOD NOTES: in vivo
- STUDY CONDITIONS: SD, rat, plasma, iv, 10 mg/kg
PROPERTY LABEL: half-life (min)
Write the value in min as a bare number.

Request: Given the entry CCC(C)(C)C(=O)O[C@H]1C[C@@H](C)C=C2C=C[C@H](C)[C@H](CC[C@@H]3C[C@@H](O)CC(=O)O3)[C@H]21 , report its measured half-life.
Result: 23.4

The values you see were collected from patent US20260157964A1.
